The reader will find reported growth values listed item by item below.
Tested on: COLO 205 colon
Assay: NCI-60 one-dose screen, 48 h (100 = growth as untreated, 0 = no growth, -100 = all killed)
Conditions: 10 µM unless noted
The panel holds about 83,000 compounds, 20% with a hit somewhere; the sample as a whole holds those more often. Activity calls are given as the source filed them. How the source made its calls: active means growth percent below 10; inactive means the rest.

[
  {
    "Compound": "O=CN1N=C(c2cccc(Nc3ccnc4cc(Cl)ccc34)c2)CC1c1ccc(Cl)cc1 (centres undefined)",
    "Target entity": "COLO 205 colon",
    "growth": "-9.28% (active)"
  },
  {
    "Compound": "Cc1sc2nc(NCCN)[nH]c(=O)c2c1C",
    "Target entity": "COLO 205 colon",
    "growth": "77% (inactive)"
  },
  {
    "Compound": "COC(=O)[C@]1(C)CCC[C@]2(C)[C@H]3C[C@@H]4[C@H]5[C@@H]6CC/C(=N\\OCC/C(N)=N/O)[C@H]5[C@@]3(CC[C@H]21)CC4(C(C)C)O6",
    "Target entity": "COLO 205 colon",
    "growth": "72.1% (inactive)"
  },
  {
    "Compound": "C=C(C)[C@@H]1CC[C@]2(C)[C@H](C=CC3=C4C[C@@](C)(CO)CC[C@]4(C)CC[C@]32C)[C@@]1(C)CCCN",
    "Target entity": "COLO 205 colon",
    "growth": "-64.4% (active)"
  },
  {
    "Compound": "CC1(C)CC[C@]23CC[C@]4(C)[C@H](CC[C@@H]5[C@@]6(C)C/C(=C/O)C(=O)C(C)(C)[C@@H]6CC[C@]54C)[C@H]2[C@H]1OC3",
    "Target entity": "COLO 205 colon",
    "growth": "111% (inactive)"
  },
  {
    "Compound": "CN1CC(c2ccc(Br)cc2)C(C(=O)c2ccc(Br)cc2)C12C(=O)Nc1ccccc12 (centres undefined)",
    "Target entity": "COLO 205 colon",
    "growth": "76.6% (inactive)"
  },
  {
    "Compound": "COC12C=C/C(=C(/C(=O)OCc3cncnc3)C(=O)CCCCCCCCC3(OC)C=C/C(=C(/C(=O)OCc4cncnc4)C(=O)CCCCCCCC1)O3)O2",
    "Target entity": "COLO 205 colon",
    "growth": "-30.5% (active)"
  },
  {
    "Compound": "Nc1ncnc2c1N=C(c1ccc(F)cc1)CC(c1cccc(Nc3ccnc4cc(Cl)ccc34)c1)N2 (centres undefined)",
    "Target entity": "COLO 205 colon",
    "growth": "49.8% (inactive)"
  },
  {
    "Compound": "Cn1cc(-c2csc(-c3cn(CCCN4CCOCC4)c4ccc(F)cc34)n2)c2cccnc21",
    "Target entity": "COLO 205 colon",
    "growth": "51.3% (inactive)"
  },
  {
    "Compound": "COc1ccc(Oc2ccc(/C=C/C(=O)c3ccc(OC)c(OC)c3)cc2)cc1",
    "Target entity": "COLO 205 colon",
    "growth": "91.9% (inactive)"
  },
  {
    "Compound": "O=C1CCCCN1c1ccc(C2=NCCCN2)cc1",
    "Target entity": "COLO 205 colon",
    "growth": "104% (inactive)"
  },
  {
    "Compound": "COc1cc(/C=C/C(=O)N2CCN(C(=O)c3cc(OC)c(OC)c(OC)c3)CC2)ccc1OCCCOc1cc2c(cc1OC)C(=O)N1CCC[C@H]1C=N2",
    "Target entity": "COLO 205 colon",
    "growth": "-63.4% (active)"
  },
  {
    "Compound": "COC(=O)[C@@]12CC=C(C)[C@]3(C[C@H](c4ccoc4)OC3=O)[C@H]1C=C[C@@H](O)[C@@]2(O)C(=O)OC",
    "Target entity": "COLO 205 colon",
    "growth": "110% (inactive)"
  },
  {
    "Compound": "CC1SC(c2ccccc2O)N(NC(=O)CCC(=O)c2nc3ncccc3[nH]2)C1=O (centres undefined)",
    "Target entity": "COLO 205 colon",
    "growth": "110% (inactive)"
  },
  {
    "Compound": "CN(C)c1ccc([C@@H](C(=O)Nc2cccc([N+](=O)[O-])c2)N(C(=O)c2cc3ccccc3[nH]2)c2cccc([N+](=O)[O-])c2)cc1",
    "Target entity": "COLO 205 colon",
    "growth": "102% (inactive)"
  },
  {
    "Compound": "C=C1C(=O)O[C@@H]2C3C(=C(C)CC[C@@H]12)CC1O[C@]13C (some centres undefined)",
    "Target entity": "COLO 205 colon",
    "growth": "87% [6.75 µM] (inactive)"
  },
  {
    "Compound": "COc1ccc(OC)c(Nc2nnc(-c3cc(OC)c(OC)c(OC)c3)o2)c1",
    "Target entity": "COLO 205 colon",
    "growth": "104% (inactive)"
  },
  {
    "Compound": "O=C1/C(=C/c2ccccn2)SC(=S)N1N1CCOCC1",
    "Target entity": "COLO 205 colon",
    "growth": "103% (inactive)"
  },
  {
    "Compound": "O=C(O)c1cn(C2CC2)c2cc(N3CCN(C(=O)N4CCOCC4)CC3)c(F)cc2c1=O",
    "Target entity": "COLO 205 colon",
    "growth": "110% (inactive)"
  },
  {
    "Compound": "N#Cc1c(-c2ccccc2)nc2c(c(-c3ccc(Cl)cc3)nn2-c2ccccc2)c1-c1ccc([N+](=O)[O-])cc1",
    "Target entity": "COLO 205 colon",
    "growth": "110% (inactive)"
  },
  {
    "Compound": "C=C1SC(=Nc2ccccc2Cl)N(C(=O)c2sc3ccccc3c2Cl)C1(C)C",
    "Target entity": "COLO 205 colon",
    "growth": "-43.8% (active)"
  },
  {
    "Compound": "COC(=O)c1nc(-c2ccccc2)oc1S(=O)(=O)N1CCCC(C)C1 (centres undefined)",
    "Target entity": "COLO 205 colon",
    "growth": "67.7% (inactive)"
  },
  {
    "Compound": "CCCCC#Cc1c(I)n(C2OC(CO[Si](C)(C)C(C)(C)C)C3OC(C)(C)OC32)c(=O)n(C(=O)c2ccccc2)c1=O (centres undefined)",
    "Target entity": "COLO 205 colon",
    "growth": "-46.9% (active)"
  },
  {
    "Compound": "Cc1ccc2c(c1)=C/C(=C\\c1cc(-c3ccccc3)[nH]c1O)C(=O)N=2",
    "Target entity": "COLO 205 colon",
    "growth": "33.1% (inactive)"
  },
  {
    "Compound": "O=C1O[C@@H](c2ccccc2Cl)[C@@H]2c3cc4c(cc3CCN12)OCO4",
    "Target entity": "COLO 205 colon",
    "growth": "110% (inactive)"
  },
  {
    "Compound": "CN(C)c1ccc(/C=C2\\C=C(c3nc4ccccc4s3)OC2=O)cc1",
    "Target entity": "COLO 205 colon",
    "growth": "102% (inactive)"
  },
  {
    "Compound": "COc1nc(/C=C\\Nc2ccc3c(c2)OCCOCCOCCOCCO3)nc(OC)n1",
    "Target entity": "COLO 205 colon",
    "growth": "109% (inactive)"
  },
  {
    "Compound": "CCSc1ccnc(N)n1",
    "Target entity": "COLO 205 colon",
    "growth": "125% (inactive)"
  },
  {
    "Compound": "CN1C(=O)/C(=C/c2ccc(C(=O)Nc3ncc(Cc4cccc(C(F)(F)F)c4)s3)cc2)SC1=S",
    "Target entity": "COLO 205 colon",
    "growth": "53% (inactive)"
  }
]
